All figures here come from patent US20250034212A1.

target: recombinant human TGF-β1 (R&D systems) (human, UniProt P01137 279-390); experiment: cell-based or functional assay
Sequence (P01137 279-390 limits assumed): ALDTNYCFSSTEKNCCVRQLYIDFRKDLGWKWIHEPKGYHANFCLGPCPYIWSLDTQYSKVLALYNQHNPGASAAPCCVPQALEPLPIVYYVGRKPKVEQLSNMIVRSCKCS
Starred links: 1 amine or outer side, 2 acyl side, 3 side chain; linkers in the order of their positions; H or OH if unused. Positions of bridges follow the written chain, without caps; N, C: chain ends. Non-standard residues stand in square brackets, D forms with d. No end group written: not given here. KCOpipzaa = N6-(4-(carboxymethyl)piperazine-1-carbonyl)-L-lysine, O=C(NCCCC[C@H](N[*:1])C(=O)[*:2])N1CCN(CC(=O)[*:3])CC1; Trp(6-aza) = N[C@@H](Cc1c[nH]c2cnccc12)C(=O)O; Trp(7-aza) = N[C@@H](Cc1c[nH]c2ncccc12)C(=O)O; 1Nal = N[C@@H](Cc1cccc2ccccc12)C(=O)O; Gly(NCH2CH2Ph) = O=C(O)CNCCc1ccccc1; 4Pal = N[C@@H](Cc1ccncc1)C(=O)O
For each entry below, report its SBE reporter % inhibition, peptide 75.0 nM value.
The reply should be a number in %, with the unit left off.

Exam item: Need SBE reporter % inhibition, peptide 75.0 nM of {CH2CO}-F[1Nal]VVNV[4Pal]DD[Gly(NCH2CH2Ph)]V[1Nal]YHVCG (thioether N-16; not fully specified (C-terminus), cyclic peptide; C-terminal G is a linker) [TGFb1_006] , thanks.
Marked response: 99.7

Exam item: Next record, please: {CH2CO}-F[1Nal]VVNV[4Pal]DD[Gly(NCH2CH2Ph)]V[1Nal][4Pal]HVCG (thioether N-16; not fully specified (C-terminus), cyclic peptide; C-terminal G is a linker) [TGFb1_009]
Marked response: 99.6

Exam item: Next record, please: {CH2CO}-F[1Nal]VVNVYDD[Gly(NCH2CH2Ph)]V[1Nal]YHVCG (thioether N-16, cyclic peptide; C-terminal G is a linker) [TGFb1_001]
Marked response: 101

Exam item: Next record, please: {CH2CO}-F[Trp(6-aza)]VVNVYDD[Gly(NCH2CH2Ph)]V[1Nal]YHVCG (thioether N-16, cyclic peptide; C-terminal G is a linker) [TGFb1_004]
Marked response: 94.9

Exam item: Next record, please: {CH2CO}-FWVVNVYDD[Gly(NCH2CH2Ph)]V[1Nal]YHVCG (thioether N-16, cyclic peptide; C-terminal G is a linker) [TGFb1_003]
Marked response: 98.8

Exam item: Next record, please: {CH2CO}-F[Trp(7-aza)]VVNVYDD[Gly(NCH2CH2Ph)]V[1Nal]YHVCG (thioether N-16; not fully specified (C-terminus), cyclic peptide; C-terminal G is a linker) [TGFb1_005]
Marked response: 98.9

Exam item: Next record, please: {CH2CO}-F[1Nal]V[KCOpipzaa]NV[4Pal]DD[Gly(NCH2CH2Ph)]V[1Nal]YHVCG (thioether N-16; not fully specified (C-terminus), cyclic peptide; C-terminal G is a linker) [TGFb1_010]
Marked response: 99.9

Exam item: Next record, please: {CH2CO}-F[Trp(7-aza)]VVNV[4Pal]DD[Gly(NCH2CH2Ph)]V[1Nal]YHVCG (thioether N-16; not fully specified (C-terminus), cyclic peptide; C-terminal G is a linker) [TGFb1_008]
Marked response: 98.4

Exam item: Next record, please: {CH2CO}-F[1Nal]VKNV[4Pal]DD[Gly(NCH2CH2Ph)]V[1Nal]YHVCG (thioether N-16; not fully specified (C-terminus), cyclic peptide; C-terminal G is a linker) [TGFb1_007]
Marked response: 96.7
